Values were extracted from patent US20100144712A1.

- Tested on: Candida albican ATCC 62342
- assayRemarks: In vitro antifungal activity (MIC80), Candida albican ATCC 62342
- Assay type: cell-based
- conditionSummary: Candida, ATCC62342; Table 2, 62342; read-out: Minimal inhibitory concentration (MIC80)
propertyMeasured: MIC80 (µg/mL)

Look over these answered cases.
# molecule, systemTested, MIC80 [µg/mL]
data = [
    ("C[C@@H](N1CCN(c2nc3ccccc3n2C)CC1)[C@](O)(Cn1cncn1)c1ccc(F)cc1F", "Candida albican ATCC 62342", 8),
    ("C[C@@H](N1CCN(c2ccccn2)CC1)[C@](O)(Cn1cncn1)c1ccc(F)cc1F", "Candida albican ATCC 62342", 1),
    ("C[C@@H](N1CCN(c2ccc(OCc3ccccc3)nc2)CC1)[C@](O)(Cn1cncn1)c1ccc(F)cc1F", "Candida albican ATCC 62342", 0.5),
]

A: C[C@@H](N1CCN(c2ccc(OCc3cccs3)nc2)CC1)[C@](O)(Cn1cncn1)c1ccc(F)cc1F
B: C[C@@H](N1CCN(c2ccc(OC3CCCC3)nc2)CC1)[C@](O)(Cn1cncn1)c1ccc(F)cc1F
C: CC(N1CCN(c2ccc(N(C)CCCN3CCOCC3)nc2)CC1)C(O)(Cn1cncn1)c1ccc(F)cc1F (centres unmarked)
D: C[C@@H](N1CCN(c2nc3ccc(Cl)cc3s2)CC1)[C@](O)(Cn1cncn1)c1ccc(F)cc1F
Inquiry: Reorder: MIC80, max to min. Answer by naming the labels in the order asked.
Reply text: C, B, A, D
